Where do the numbers come from? From PubChem BioAssay AID1205.

# Assay name: DSSTox (CPDBAS) Carcinogenic Potency Database Summary MultiCellCall Results
# Condition label: animal carcinogenicity bioassays, multi-cell call summary
Active and inactive are the calls of the source.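 Rule for the calls: active = tumour findings in long-term animal cancer tests in more than one sex, species or organ; inactive = no tumour finding and more than one negative test.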
Answer with one of the outcomes given here: Yes = active, No = inactive

{"Compound": "O=C(O)c1ccccc1-c1c2cc(I)c(=O)c(I)c-2oc2c(I)c(O)c(I)cc12", "Class assignment": "No"}
{"Compound": "O=C1NCCN1/N=C/c1ccc([N+](=O)[O-])o1", "Class assignment": "Yes"}
{"Compound": "CN(C)C(=S)S", "Class assignment": "No"}

# input // param item: `O=[N+]([O-])c1ccc2ccc3cccc4ccc1c2c34` ; yields the recorded call
# output Yes

* * *

# Assay name: DSSTox (CPDBAS) Carcinogenic Potency Database Summary MultiCellCall Results
# Condition label: animal carcinogenicity bioassays, multi-cell call summary
Active and inactive are the calls of the source.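 How the source made its calls: active means tumour findings in long-term animal cancer tests in more than one sex, species or organ; inactive means no tumour finding and more than one negative test.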
Answer with one of the outcomes given here: T for active, F for inactive

Here's what some known entries look like.
{"Molecule": "CC(C)CCC[C@@H](C)[C@H]1CC[C@H]2[C@@H]3CC=C4C[C@@H](OC(=O)Cc5ccc(N(CCCl)CCCl)cc5)CC[C@]4(C)[C@H]3CC[C@]12C", "Class assignment": "T"}
{"Molecule": "O=[N+]([O-])c1ccc2ncccc2c1", "Class assignment": "F"}
{"Molecule": "CN(C)CCN(Cc1cccs1)c1ccccn1", "Class assignment": "T"}
{"Molecule": "Cc1ccc2c(-c3ccccc3)nc(=O)n(C(C)C)c2c1", "Class assignment": "F"}
{"Molecule": "CCNC(=O)N(CCO)N=O", "Class assignment": "T"}

# input // param item: `CCCc1ccc2c(c1)OCO2` ; yields the recorded call
# output T

# input // param item: `O=c1cc(CO)occ1O` ; yields the recorded call
# output T

# input // param item: `OC[C@@H](O)[C@@H](O)[C@H](O)[C@H](O)CO` ; yields the recorded call
# output F

# input // param item: `O=P(=O)O` ; yields the recorded call
# output F

# input // param item: `S=c1nc[nH]c2nc[nH]c12` ; yields the recorded call
# output F

# input // param item: `CN(C)/N=N/c1nc[nH]c1C(N)=O` ; yields the recorded call
# output T

# input // param item: `C[N+](=O)[O-]` ; yields the recorded call
# output T

# input // param item: `Cc1cc(C)c(N=Nc2c(O)c(S(=O)(=O)O)cc3cc(S(=O)(=O)O)ccc23)cc1C` ; yields the recorded call
# output T

# input // param item: `C=CCl` ; yields the recorded call
# output T

# input // param item: `CCN(CC)C(=S)S[Te](SC(=S)N(CC)CC)(SC(=S)N(CC)CC)SC(=S)N(CC)CC` ; yields the recorded call
# output F

* * *

# Assay name: DSSTox (CPDBAS) Carcinogenic Potency Database Summary MultiCellCall Results
# Condition label: animal carcinogenicity bioassays, multi-cell call summary
# Excerpt: The Carcinogenic Potency Database (CPDB) is a unique and widely used international resource of the results of over 6500 chronic, long-term animal cancer tests on over 1500 chemical substances. The CPDB provides easy access to the bioassay literature, with qualitative and quantitative analyses of both positive and negative experiments that have been published over the past 50 years in the general literature and by the National Cancer Institute/National Toxicology Program. […]
Activity calls are given as the source filed them.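 How the source made its calls: active means tumour findings in long-term animal cancer tests in more than one sex, species or organ; inactive means no tumour finding and more than one negative test.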
Answer with one of the outcomes given here: active, inactive

{"Compound": "Nc1cc(Cl)c(N)c(Cl)c1", "Class assignment": "active"}
{"Compound": "CN(CCO)N=O", "Class assignment": "active"}
{"Compound": "O=Cc1ccccc1", "Class assignment": "active"}
{"Compound": "O=[As]O", "Class assignment": "inactive"}
{"Compound": "ClCC(Cl)CCl", "Class assignment": "active"}
{"Compound": "CCCCCN(CCCCC)N=O", "Class assignment": "active"}

# input // param item: COc1cc2c(c3oc(=O)c4c(c13)CCC4=O)C1C=COC1O2 (stereo not drawn) ; yields the recorded call
# output active

# input // param item: `Cc1ccc(N)cc1Cl` ; yields the recorded call
# output inactive

* * *

# Assay name: DSSTox (CPDBAS) Carcinogenic Potency Database Summary MultiCellCall Results
# Condition label: animal carcinogenicity bioassays, multi-cell call summary
Activity calls are given as the source filed them.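 Rule for the calls: active = tumour findings in long-term animal cancer tests in more than one sex, species or organ; inactive = no tumour finding and more than one negative test.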
Answer with one of the outcomes given here: active, inactive

Here's what some known entries look like.
{"Molecule": "Cc1ccc(N=C=O)cc1N=C=O", "Class assignment": "active"}
{"Molecule": "Cc1c(-c2cnccn2)ssc1=S", "Class assignment": "inactive"}
{"Molecule": "CC(COc1ccc(C(C)(C)C)cc1)OS(=O)OCCCl (centres undefined)", "Class assignment": "active"}
{"Molecule": "NNC(=O)c1cccnc1", "Class assignment": "active"}
{"Molecule": "C/C=C1/C[C@@H](C)[C@](O)(CO)C(=O)OCC2=CC[N+]3([O-])CC[C@@H](OC1=O)[C@@H]23 (some centres undefined)", "Class assignment": "active"}
{"Molecule": "Cc1cc(O)c(C(C)(C)C)cc1Sc1cc(C(C)(C)C)c(O)cc1C", "Class assignment": "inactive"}

# input // param item: `O=c1cc[nH]c(=O)[nH]1` ; yields the recorded call
# output active

# input // param item: `ClC1=C(Cl)[C@]2(Cl)[C@@H]3[C@@H]4C[C@@H]([C@H]5O[C@@H]45)[C@@H]3[C@@]1(Cl)C2(Cl)Cl` ; yields the recorded call
# output active

# input // param item: `S=C(SN1CCOCC1)N1CCOCC1` ; yields the recorded call
# output active

# input // param item: `O=Cc1ccco1` ; yields the recorded call
# output active

# input // param item: `CC#N` ; yields the recorded call
# output inactive

# input // param item: `CC(C)CON=O` ; yields the recorded call
# output active

# input // param item: `c1ccccc1` ; yields the recorded call
# output active

* * *

# Assay name: DSSTox (CPDBAS) Carcinogenic Potency Database Summary MultiCellCall Results
# Condition label: animal carcinogenicity bioassays, multi-cell call summary
Activity calls are given as the source filed them.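 How the source made its calls: active means tumour findings in long-term animal cancer tests in more than one sex, species or organ; inactive means no tumour finding and more than one negative test.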
Answer with one of the outcomes given here: active, inactive

Here's what some known entries look like.
{"Compound": "CC1(C)C(=O)Nc2ccc(C3=NNC(=O)CC3)cc21", "Class assignment": "active"}
{"Compound": "ClCOCCl", "Class assignment": "active"}
{"Compound": "CC(=O)CN(CC(C)=O)N=O", "Class assignment": "active"}
{"Compound": "ClC(Cl)=C(Cl)C(Cl)=C(Cl)Cl", "Class assignment": "active"}
{"Compound": "COc1ccc2c3c1O[C@H]1[C@@H](O)C=C[C@H]4[C@@H](C2)N(C)CC[C@@]341", "Class assignment": "inactive"}
{"Compound": "O=NN1CCOC1=O", "Class assignment": "active"}
{"Compound": "C=CCN(CC=C)N=O", "Class assignment": "active"}
{"Compound": "Cc1cccc(Nc2cc(Cl)nc(SCC(=O)NCCO)n2)c1C", "Class assignment": "active"}

# input // param item: `OCCO` ; yields the recorded call
# output inactive

# input // param item: C/C=C/C(=O)Oc1c(C(C)CCCCCC)cc([N+](=O)[O-])cc1[N+](=O)[O-] (stereo not given) ; yields the recorded call
# output inactive

# input // param item: N#Cc1ccc(C2CCCc3cncn32)cc1 (stereo not given) ; yields the recorded call
# output inactive

# input // param item: C=CCN(CC(O)CO)N=O (stereo not given) ; yields the recorded call
# output active

# input // param item: `C=CC=O` ; yields the recorded call
# output inactive

# input // param item: `CC(C)(CO)CCCCCCC(C)(C)CO` ; yields the recorded call
# output inactive

# input // param item: `CC(C)CCCCCCOC(=O)c1ccccc1C(=O)OCCCCCCC(C)C` ; yields the recorded call
# output active

# input // param item: `c1ccc2sc(SNC3CCCCC3)nc2c1` ; yields the recorded call
# output inactive

# input // param item: `CN(N=O)c1ncnc2c1ncn2[C@@H]1O[C@H](CO)[C@@H](O)[C@H]1O` ; yields the recorded call
# output active

# input // param item: `Clc1ccc(Sc2cc(Cl)c(Cl)cc2Cl)cc1` ; yields the recorded call
# output inactive

# input // param item: `Nc1cc(S(=O)(=O)[O-])cc2cc(S(=O)(=O)[O-])c(N=Nc3ccc(-c4ccc(N=Nc5c(S(=O)(=O)[O-])cc6cc(S(=O)(=O)[O-])cc(N)c6c5O)c(O)c4)cc3O)c(O)c12.[Cu].[Cu].[Na+].[Na+].[Na+].[Na+]` ; yields the recorded call
# output active

# input // param item: c1ccc(C2CO2)cc1 (stereo not given) ; yields the recorded call
# output active

# input // param item: `NC(=S)NNC(N)=S` ; yields the recorded call
# output inactive

# input // param item: `CCN(N=O)C(N)=O` ; yields the recorded call
# output active

# input // param item: `S=[Se]` ; yields the recorded call
# output active

# input // param item: `CN(C)N` ; yields the recorded call
# output active

# input // param item: `O=[N+]([O-])c1ccc(Cl)c([N+](=O)[O-])c1` ; yields the recorded call
# output inactive

# input // param item: `CC(C)OC(=O)Nc1ccccc1` ; yields the recorded call
# output inactive
